The following compounds are listed with their measured IC50 values.
- TARGET_OF_ASSAY: human TrkA receptor (Homo sapiens (Human))
- METHOD_NOTES: TrkA functional activity, DiscoverX PathHunter assay (NGF-stimulated U2OS cells)
- CONDITION_CONTEXT: U2OS cells expressing human TrkA-Prolink, Shc1-EA and p75NTR; compound 1 h, then NGF (~80% of maximal response) 3 h; luminescence
Supply the numeric figure in nM, leaving out any unit text.

// IC50 lookup, compound = O=C(Nc1c(-c2ccccc2)ccn2c(CO)cnc12)c1cc(-c2ccccn2)c(C(F)(F)F)cc1F [Compound 24] , result: 2.5

// IC50 lookup, compound = Cn1ccc(-c2cc(C(=O)Nc3c(-c4ccccc4)ccn4ccnc34)ccc2C(F)(F)F)n1 [Compound 34] , result: 53

// IC50 lookup, compound = CC(C)(O)c1cnc2c(NC(=O)c3cc(-c4ncccn4)c(C(F)(F)F)cc3F)c(-c3ccc(F)cc3)ccn12 [Compound 54] , result: 58

// IC50 lookup, compound = [2H]C([2H])(O)c1cnc2c(NC(=O)c3cc(-c4ncccn4)c(C(F)(F)F)cc3F)c(-c3ccccc3)ccn12 [Compound 35] , result: 4.4

* * *

- TARGET_OF_ASSAY: UniProt P04629
- METHOD_NOTES: TrkA functional activity, DiscoverX PathHunter assay (NGF-stimulated U2OS cells)
- CONDITION_CONTEXT: U2OS cells expressing human TrkA-Prolink, Shc1-EA and p75NTR; compound 1 h, then NGF (~80% of maximal response) 3 h; luminescence
The following compounds are listed with their measured IC50 values.
Supply the numeric figure in nM, leaving out any unit text.

>>> recorded_result("Cn1ccc(-c2cc(C(=O)Nc3c(-c4ccccc4)ccn4c(CO)cnc34)ccc2C(F)(F)F)n1 [Compound 13]")
2.4

// assay UniProt P04629, entry Cc1ncc2nc(-c3ccccc3)c(NC(=O)c3ccc(C(F)(F)F)c(-c4ccn(C)n4)c3)cn12 [Compound 62] , IC50 value = 47

// assay UniProt P04629, entry O=C(Nc1c(-c2cccc(CO)c2)ccn2ccnc12)c1cc(-c2ncccn2)c(C(F)(F)F)cc1F [Compound 58] , IC50 value = 232

// assay UniProt P04629, entry CC(C)(O)c1cnc2c(NC(=O)c3cc(-c4cc[nH]n4)c(C(F)(F)F)cc3F)c(-c3ccccc3)ccn12 [Compound 31] , IC50 value = 0.94

* * *

- TARGET_OF_ASSAY: human TrkA receptor (Homo sapiens (Human), UniProt P04629)
- Sequence (P04629 33-796): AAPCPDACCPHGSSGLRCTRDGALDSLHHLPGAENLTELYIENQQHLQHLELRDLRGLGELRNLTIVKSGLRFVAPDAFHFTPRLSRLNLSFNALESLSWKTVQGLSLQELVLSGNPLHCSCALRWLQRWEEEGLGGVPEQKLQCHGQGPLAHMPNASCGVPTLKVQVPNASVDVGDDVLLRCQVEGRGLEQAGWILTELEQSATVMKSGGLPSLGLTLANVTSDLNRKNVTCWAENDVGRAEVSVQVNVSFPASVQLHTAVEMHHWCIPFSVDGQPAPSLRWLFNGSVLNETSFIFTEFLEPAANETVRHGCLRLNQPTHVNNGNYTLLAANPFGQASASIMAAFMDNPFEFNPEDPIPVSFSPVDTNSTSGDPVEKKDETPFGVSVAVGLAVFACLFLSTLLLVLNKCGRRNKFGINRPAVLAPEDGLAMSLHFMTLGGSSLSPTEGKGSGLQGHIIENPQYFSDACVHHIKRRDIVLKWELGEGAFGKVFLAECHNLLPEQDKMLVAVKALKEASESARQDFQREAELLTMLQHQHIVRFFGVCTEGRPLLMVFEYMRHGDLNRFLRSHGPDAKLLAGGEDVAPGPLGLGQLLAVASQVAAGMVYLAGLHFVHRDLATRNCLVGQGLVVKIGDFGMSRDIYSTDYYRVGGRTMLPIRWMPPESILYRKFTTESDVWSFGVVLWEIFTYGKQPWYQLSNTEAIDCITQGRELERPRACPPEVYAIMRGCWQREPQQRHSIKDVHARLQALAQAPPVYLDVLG
- METHOD_NOTES: TrkA functional activity, DiscoverX PathHunter assay (NGF-stimulated U2OS cells)
- CONDITION_CONTEXT: U2OS cells expressing human TrkA-Prolink, Shc1-EA and p75NTR; compound 1 h, then NGF (~80% of maximal response) 3 h; luminescence
MEASUREMENT_LABEL: IC50
# do not omit the unit; it follows the number

// IC50 lookup, compound = CC(C)(O)c1cnc2c(NC(=O)c3cc(-c4ncccn4)c(C(F)(F)F)cc3F)c(-c3ccccc3)ccn12 [Compound 11] , result: 4 nM

* * *

- TARGET_OF_ASSAY: human TrkA receptor (Homo sapiens (Human), UniProt P04629)
- METHOD_NOTES: TrkA functional activity, DiscoverX PathHunter assay (NGF-stimulated U2OS cells)
- CONDITION_CONTEXT: U2OS cells expressing human TrkA-Prolink, Shc1-EA and p75NTR; compound 1 h, then NGF (~80% of maximal response) 3 h; luminescence
Response field label takes True when IC50 is strictly below 4 nM and False in all other cases.

Consider the following illustrative entries.
>>> label_class("[2H]C(C)(O)c1cnc2c(NC(=O)c3cc(-c4ncccn4)c(C(F)(F)F)cc3F)c(-c3ccccc3)ccn12 (single isomer, unassigned) [Compound 75]")
"True"
>>> label_class("CC(O)c1cnc2c(NC(=O)c3cc(-c4ncccn4)c(C(F)(F)F)cc3F)c(-c3ccccc3)ccn12 (single isomer, unassigned) [Compound 10]")
"True"
>>> label_class("NC(=O)Cc1cnc2c(NC(=O)c3cc(-c4ncccn4)c(C(F)(F)F)cc3F)c(-c3ccccc3)ccn12")
"False"
>>> label_class("[2H]C(C)(O)c1cnc2c(NC(=O)c3cc(-c4ncccn4)c(C(F)(F)F)cc3F)c(-c3ccccc3)ccn12 (single isomer, unassigned) [Compound 74]")
"False"
>>> label_class("Cn1ccc(-c2cc(C(=O)Nc3c(-c4ccccc4)ccn4c(C(C)(C)O)cnc34)ccc2C(F)(F)F)n1")
"False"

Proceed to the following item.
Query :: Dear reviewer, please state whether CC(O)c1cnc2c(NC(=O)c3ccc(C(F)(F)F)c(-c4ccn(C)n4)c3)c(-c3ccccc3)ccn12 (single isomer, unassigned) [Compound 14] has IC50 strictly beneath 4 nM.
Result :: False
